Assay: chemical genetic growth profiling, strain panel (AID 1159580);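 also: tested at 20 µM; growth read once vehicle control cultures reached saturation at 30 °C; 1 = growth at the plate median or of vehicle wells; lower values mean less growth of the strain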
Settings: S. cerevisiae deletion strains, growth OD, locus YPR135W, strain CTF4, stronger effect = lower value
Screen size: about 5,500 compounds; about 2,000 (36%) were called active. Inconclusive results (about 18%) are left out. Some of the results follow.

{"MOLECULE SMILES": "CSC(=NCc1cccnc1)NC#N", "normalized growth": 1.01}
{"MOLECULE SMILES": "O=C(N/N=C\\c1ccccc1Cl)c1cccnc1", "normalized growth": 1}
{"MOLECULE SMILES": "COc1cc(NC(=O)NS(=O)(=O)c2ccc(C)cc2)cc(C(F)(F)F)c1", "normalized growth": 1.02}
{"MOLECULE SMILES": "O=C1CCCc2c1nc(-c1ccccc1)n2O", "normalized growth": 1}

---

Parameter: normalized growth. Scope: all listed entries.
Experiment: chemical genetic growth profiling, strain panel (AID 1159580);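 also: tested at 20 µM; growth read once vehicle control cultures reached saturation at 30 °C; 1 = growth at the plate median or of vehicle wells; lower values mean less growth of the strain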
Details: S. cerevisiae deletion strains, growth OD, locus YJR066W, strain TOR1, stronger effect = lower value
Among all 5,500 compounds or so, about 2,000 (36%) were called active. Inconclusive results (about 18%) are left out. The list shows a part of the results.

{"MOLECULE": "COc1ccc(-c2cc(=O)c3cc(OC)ccc3o2)cc1", "normalized growth": 0.893}
{"MOLECULE": "COc1cccc(-c2cc(=O)c3cc(OC)ccc3o2)c1", "normalized growth": 0.916}
{"MOLECULE": "CC(C)(O)[C@@H]1CC[C@](C)([C@H]2[C@@H](O)C[C@@]3(C)C4C[C@H](O[C@@H]5O[C@H](CO)[C@@H](O)[C@H](O)[C@H]5O)C5C(C)(C)[C@@H](O[C@@H]6OC[C@@H](O)[C@H](O)[C@H]6O)CC[C@@]56C[C@@]46CC[C@]23C)O1 (some centres undefined)", "normalized growth": 0.92}
{"MOLECULE": "Nc1ccc(C(=O)Oc2ccccc2)c(O)c1", "normalized growth": 0.893}

---

Item-by-item account of normalized growth
Experiment: chemical genetic growth profiling, strain panel (AID 1159580);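 also: tested at 20 µM; growth read once vehicle control cultures reached saturation at 30 °C; 1 = growth at the plate median or of vehicle wells; lower values mean less growth of the strain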
Settings: S. cerevisiae deletion strains, growth OD, locus YNL298W, strain CLA4, stronger effect = lower value
In all, about 5,500 compounds went through this assay and about 2,000 (36%) were called active. About 18% were inconclusive and are not listed. Some of the results follow.
QUANTITY KIND: normalized growth

{"COMPOUND": "O=C1CC[C@]23C=CC(=O)NCCCCNCCCNC(=O)/C=C/c4ccc(c2c4)O[C@@H]3C1", "QUANTITY KIND": "normalized growth", "RESULT VALUE": "0.997 (inactive)"}
{"COMPOUND": "COC(=O)C[C@H]1C(C)(C)C(=O)[C@@H]2CC3=C4CC(OC)O[C@@H](c5ccoc5)[C@]4(C)CCC3[C@@]1(C)C2=O (stereo partly drawn)", "QUANTITY KIND": "normalized growth", "RESULT VALUE": "0.984 (inactive)"}
{"COMPOUND": "Cc1cc2cc3c(C)cc(=O)oc3c(C)c2o1", "QUANTITY KIND": "normalized growth", "RESULT VALUE": "0.941 (inactive)"}

---

Listing of entries alongside the reported normalized growth.
Experiment: chemical genetic growth profiling, strain panel (AID 1159580);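 also: tested at 20 µM; growth read once vehicle control cultures reached saturation at 30 °C; 1 = growth at the plate median or of vehicle wells; lower values mean less growth of the strain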
Details: S. cerevisiae deletion strains, growth OD, locus YJR075W, strain HOC1, stronger effect = lower value
The campaign covered roughly 5,500 compounds. About 2,000 (36%) were called active. Another 18% or so got no clear call; they are omitted. The list shows a part of the results.

{"COMPOUND": "CC(C)[C@]12O[C@H]1[C@@H]1O[C@@]13[C@@]1(C)CCC4=C(COC4=O)[C@@H]1C[C@@H]1O[C@@]13C2=O", "normalized growth": 1.02}
{"COMPOUND": "CCCCC1C(=O)N(c2ccccc2)N(c2ccccc2)C1=O", "normalized growth": 1}
{"COMPOUND": "CC(N)Cc1ccc(O)cc1 (centres undefined)", "normalized growth": 1.02}
{"COMPOUND": "CCCCc1ccc(C(=O)O)nc1", "normalized growth": 1.07}
